Target or system purified full‐length Strep flag LRRK2 (Homo sapiens, UniProt Q5S007); recorded quantity IC50.
endpoint label: IC50 (nM)

| molecule | target system | IC50 (nM) |
| --- | --- | --- |
| CCNc1nc(Nc2cc(F)c(C(=O)N3CCOCC3)cc2OC)ncc1C(F)(F)F | purified full‐length Strep flag LRRK2 (Homo sapiens, UniProt Q5S007) | 17.3 |
| CCNc1nc(Nc2cc(F)c(C(=O)NCCCCNc3cccc4c3C(=O)N(C3CCC(=O)NC3=O)C4=O)cc2OC)ncc1C(F)(F)F (centres unmarked) | purified full‐length Strep flag LRRK2 (Homo sapiens, UniProt Q5S007) | 14.7 |
